tested_on: BSA (UniProt P02769)
Sequence (P02769 25-607 limits assumed): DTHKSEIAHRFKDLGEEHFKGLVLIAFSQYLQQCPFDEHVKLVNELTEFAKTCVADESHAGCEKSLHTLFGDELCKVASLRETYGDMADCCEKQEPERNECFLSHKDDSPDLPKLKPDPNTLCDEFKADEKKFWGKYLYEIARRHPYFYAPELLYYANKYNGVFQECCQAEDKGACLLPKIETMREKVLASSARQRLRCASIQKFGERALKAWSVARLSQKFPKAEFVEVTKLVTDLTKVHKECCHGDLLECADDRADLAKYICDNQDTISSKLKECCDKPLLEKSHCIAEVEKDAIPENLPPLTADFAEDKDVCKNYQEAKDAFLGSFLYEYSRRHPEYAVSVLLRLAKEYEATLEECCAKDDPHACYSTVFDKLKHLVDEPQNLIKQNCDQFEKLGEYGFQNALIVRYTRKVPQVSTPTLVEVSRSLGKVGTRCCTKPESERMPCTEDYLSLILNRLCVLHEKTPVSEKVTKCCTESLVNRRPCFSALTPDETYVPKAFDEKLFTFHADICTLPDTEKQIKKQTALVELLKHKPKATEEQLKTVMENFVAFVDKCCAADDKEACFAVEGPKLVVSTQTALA
protocol: scFv ELISA
measurement_type: OD450 (OD450)
Give bare numbers, in OD450.

Please review the entries below; each comes with its answer.
[[record]]
binder = "PcOxP_DB01_A08 (scFv, V domains shown, scFv in periplasmic extract) VH: EVQLLESGGGLVQPGGSLRLSCAASGFTQSDFYMEWVRQAPGKGLEWVAAIRNKANSYTTEYADSVKGRFTISRDNSKNTLYLQMNSLRAEDTAVYYCARDYYGSSYWYFDVWGQGTLVTVSS VL: DIVMTQSPDSLAVSLGERATINCTASESVYSSKNKKHYLAWYQQKPGQPPKLLIYGASNRYIGVPDRFSGSGSGTDFTLTISSLQAEDVAVYYCAQFYSYPLTFGGGTKVEIK"
measurement_type = "OD450"
measured = 0.09

[[record]]
binder = "PcOxP_DB03_A06 (scFv, V domains shown, scFv in periplasmic extract) VH: EVQLLESGGGLVQPGGSLRLSCAASGFTFSSYYMEWVRQAPGKGLEWVAASRSKANDYTTEYADSVKGRFTISRDNSKNTLYLQMNSLRAEDTAVYYCARDYYGSQYWYFDVWGQGTLVTVSS VL: DIVMTQSPDSLAVSLGERATINCTASESLYSNKHKVHYLAWYQQKPGQPPKLLIYGASNRYIGVPDRFSGSGSGTDFTLTISSLQAEDVAVYYCAQFYSYPLTFGGGTKVEIK"
measurement_type = "OD450"
measured = 0.08


Field: OD450. Fill in for each record below.
1. PcOxP_DB02_H09 (scFv, V domains shown, scFv in periplasmic extract) VH: EVQLLESGGGLVQPGGSLRLSCAASGFTFSSYYMEWVRQAPGKGLEWVAASRNKANDYTYEYADSVKGRFTISRDNSKNTLYLQMNSLRAEDTAVYYCARDYYESSYWYFDVWGQGTLVTVSS VL: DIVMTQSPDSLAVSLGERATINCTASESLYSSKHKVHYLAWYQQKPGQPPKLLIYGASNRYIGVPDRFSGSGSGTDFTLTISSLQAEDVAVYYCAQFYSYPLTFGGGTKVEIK
2. PcOxP_DB02_G07 (scFv, V domains shown, scFv in periplasmic extract) VH: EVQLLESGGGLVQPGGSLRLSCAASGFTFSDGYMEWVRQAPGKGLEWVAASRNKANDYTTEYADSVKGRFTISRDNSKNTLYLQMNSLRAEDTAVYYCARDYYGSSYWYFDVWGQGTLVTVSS VL: DIQMTQSPSSLSASVGDRVTITCTASESLYSSKHKVHYLAWYQQKPGKAPKLLIYGASNRYGGVPSRFSGSGSGTDFTLTISSLQPEDFATYYCAQFYSYPLTFGGGTKVEIK

[0.07, 0.1]
